- TARGET_ENTITY: mutant form of the human GPR119 receptor (Homo sapiens (Human), UniProt Q8TDV5, S329A/T327A)
- Sequence (Q8TDV5 other isoform, or with tags, fused parts or gaps T327A/S329A): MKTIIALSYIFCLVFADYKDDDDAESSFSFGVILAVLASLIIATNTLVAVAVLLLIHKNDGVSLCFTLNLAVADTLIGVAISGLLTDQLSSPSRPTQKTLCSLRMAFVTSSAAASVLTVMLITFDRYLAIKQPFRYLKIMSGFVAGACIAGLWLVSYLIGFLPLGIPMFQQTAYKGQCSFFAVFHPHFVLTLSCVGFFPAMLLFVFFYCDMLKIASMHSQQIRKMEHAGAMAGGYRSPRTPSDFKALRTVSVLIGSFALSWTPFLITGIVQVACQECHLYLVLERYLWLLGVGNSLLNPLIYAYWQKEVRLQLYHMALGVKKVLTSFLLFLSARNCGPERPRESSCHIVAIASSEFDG
- PROTOCOL: LANCE cAMP-384 assay in HEK293 cells stably expressing a mutant form of human GPR119
- MEASUREMENT_CONTEXT: 20 min at 37° C.

| MOLECULE | EC50 [nM] |
| --- | --- |
| Cc1nccn1-c1ccc(C(=O)N(C2CC2)C2CCN(C(=O)OC(C)C)CC2)cc1 | 1580 |
| CC(C)OC(=O)N1CC[C@@H](N(C(=O)c2ccc(-n3cncn3)c(F)c2)C2CC2)[C@@H](F)C1 (single isomer, unassigned) | 1020 |
| CC(C)OC(=O)N1CC[C@H](N(C(=O)c2ccc(-n3cncn3)c(F)c2)C2CC2)[C@H](F)C1 (single isomer, unassigned) | 42 |
| CC(C)OC(=O)N1CCC(N(C(=O)c2ccc(-n3cncn3)c(F)c2)C2CC2)CC1 | 338 |

* * *

- TARGET_ENTITY: human GPR119 (Homo sapiens (Human), UniProt Q8TDV5)
- Sequence (Q8TDV5 whole entry): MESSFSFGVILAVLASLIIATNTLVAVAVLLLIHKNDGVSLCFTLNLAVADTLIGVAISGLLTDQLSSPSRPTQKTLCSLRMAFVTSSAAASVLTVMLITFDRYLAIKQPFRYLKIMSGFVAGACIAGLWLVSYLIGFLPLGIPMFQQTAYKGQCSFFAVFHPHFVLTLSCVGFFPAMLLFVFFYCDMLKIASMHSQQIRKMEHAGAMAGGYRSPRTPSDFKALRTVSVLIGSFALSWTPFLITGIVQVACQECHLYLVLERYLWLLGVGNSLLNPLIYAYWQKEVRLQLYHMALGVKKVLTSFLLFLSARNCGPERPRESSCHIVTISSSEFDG
- PROTOCOL: AlphaScreen cAMP assay in MIN6 cells stably transfected with human GPR119
- MEASUREMENT_CONTEXT: Min-6/hGPR119 cells, 45 min incubation at room temperature
Measured EC50 of individual entries

| COMPOUND | UNIT | EC50 |
| --- | --- | --- |
| CC(C)(C)OC(=O)N1CCC(N(C(=O)c2ccc(-c3cnco3)c(N)c2)C2CC2)CC1 | nM | 169 |
| CC(C)(C)OC(=O)N1CCC(N(C(=O)c2ccc(-c3cnco3)c([N+](=O)[O-])c2)C2CC2)CC1 | nM | 78 |
| Cc1c(-c2ccccc2)ncn1-c1ccc(C(=O)N(C2CC2)C2CCN(C(=O)OC(C)(C)C)CC2)cc1 | nM | 291 |
| CN(C)C(=O)Nc1nnc(-c2ccc(C(=O)N(C3CC3)C3CCN(C(=O)OC(C)(C)C)CC3)cc2)s1 | nM | 233 |
| CC(C)(C)OC(=O)N1CCC(N(C(=O)c2ccc(-c3ccc(NS(C)(=O)=O)cc3)cc2)C2CC2)CC1 | nM | 79 |
| COc1ncc(-c2ccc(C(=O)N(C3CC3)C3CCN(C(=O)OC(C)(C)C)CC3)cc2)cn1 | nM | 55 |
| CCOC(=O)N1CCC(N(C(=O)c2ccc(-c3cnco3)cc2)C2CC2)CC1 | nM | 222 |
| COc1ccc(OC(=O)N2CCC(N(C(=O)c3ccc(-c4cnco4)cc3)C3CC3)CC2)cc1 | nM | 71 |
| CC(C)OC(=O)N1CCC(N(C(=O)c2ccc(-c3ccncc3C#N)cc2)C2CC2)CC1 | nM | 49 |
| Cc1cncnc1-c1ccc(C(=O)N(C2CC2)C2CCN(C(=O)OC(C)(C)C)CC2)cc1 | nM | 469 |
| CN(C)c1ccc(-c2ccc(C(=O)N(C3CC3)C3CCN(C(=O)OC(C)(C)C)CC3)cc2)cn1 | nM | 229 |
| CC(C)(C)OC(=O)N1CCC(N(C(=O)c2ccc(-c3ccc(N4CCOCC4)cc3)cc2)C2CC2)CC1 | nM | 127 |
| CC(C)(C)OC(=O)N1CCC(N(C(=O)c2cc(F)c(-c3cnco3)c(F)c2)C2CC2)CC1 | nM | 9 |
| Cn1cc(-c2ccc(C(=O)N(C3CC3)C3CCN(C(=O)OC(C)(C)C)CC3)cc2)cn1 | nM | 423 |
| CC(C)(C)OC(=O)N1CCC(N(C(=O)c2ccc(-c3ccc(O)nc3)cc2)C2CC2)CC1 | nM | 461 |
| CC(C)(C)OC(=O)N1CCC(N(C(=O)c2ccc(-c3noc(Cc4ccccc4)n3)cc2)C2CC2)CC1 | nM | 192 |
